src = PubChem BioAssay (EPA / NIEHS)

read-out: Monocyte Chemoattractant Protein-1 (MCP1), CCL2 (gene 6347); test: BSK_3C_MCP1: BioMAP Diversity Plus: 3C Assay for Monocyte Chemoattractant Protein-1 (MCP1) Biomarker Activity (AID 2283017); conditions: primary human endothelial cells (HUVEC); actives raise or lower the signal
Activity calls are given as the source filed them. The calls were made as follows: active = hit-call score of the fitted dose curve at least 0.9, where 1 is the maximum; inactive = score below 0.9.
Possible outcomes: active, inactive

- CC[C@H](C)C(=O)O[C@H]1C[C@H](O)C=C2C=C[C@H](C)[C@H](CC[C@@H](O)C[C@@H](O)CC(=O)O)[C@H]21: inactive
- O=C(NO)C1(NS(=O)(=O)c2ccc(Oc3ccc(F)cc3)cc2)CCOCC1: inactive
- C=CCc1cc(S(=O)(=O)c2ccc(O)c(CC=C)c2)ccc1O: active
- COS(C)(=O)=O: inactive
- Nc1ccn([C@@H]2O[C@H](CO)[C@@H](O)[C@@H]2O)c(=O)n1: inactive
- CCCCN1C(=O)[C@@H]([C@H](O)C2CCCCC2)NC(=O)C12CCN(Cc1ccc(Oc3ccc(C(=O)O)cc3)cc1)CC2: active
- CCCCCCOC(=O)CC(CC(=O)OCCCCCC)(OC(=O)CCC)C(=O)OCCCCCC: inactive
- O=C1CN(N=Cc2ccc([N+](=O)[O-])o2)C(=O)N1: inactive
- O=C(Cl)C(F)(F)C(F)(F)C(F)(F)C(=O)Cl: inactive
- FC(F)C(F)(F)COCC1CO1 (stereo unspecified): inactive
- OC(CCl)CCl: inactive
- OC[C@H]1O[C@@H]2O[C@H]3[C@H](O)[C@@H](O)[C@@H](O[C@H]4[C@H](O)[C@@H](O)[C@@H](O[C@H]5[C@H](O)[C@@H](O)[C@@H](O[C@H]6[C@H](O)[C@@H](O)[C@@H](O[C@H]7[C@H](O)[C@@H](O)[C@@H](O[C@H]1[C@H](O)[C@H]2O)O[C@@H]7CO)O[C@@H]6CO)O[C@@H]5CO)O[C@@H]4CO)O[C@@H]3CO: inactive
- OC(Cn1cncn1)(Cn1cncn1)c1ccc(F)cc1F: inactive
- Cn1cc[nH]c1=S: inactive
- CC(C)c1nnc2ccc(-c3ocnc3-c3cc(F)ccc3F)cn12: active
- CCCCCCCC1CCC(=O)O1 (stereo unspecified): inactive
- CCN(CC)C(=S)SSC(=S)N(CC)CC: active
- OC[C@H]1O[C@@](CO)(O[C@H]2O[C@H](CO)[C@@H](O)[C@H](O)[C@H]2O)[C@@H](O)[C@@H]1O: inactive
- C=CN1CCCC1=O: inactive
- C[Si](C)(C)C(F)(F)C(F)(F)C(F)(F)F: inactive
- O=C(O)c1cccc(C(=O)O)c1: inactive

###

read-out: Urokinase-type plasminogen activator receptor (uPAR), PLAUR (gene 5329); assay: BSK_4H_uPAR: BioMAP Diversity Plus: 4H Assay for Urokinase-type plasminogen activator receptor (uPAR) Biomarker Activity (AID 2283030); settings: primary human endothelial cells (HUVEC); actives raise or lower the signal
The source made the active and inactive calls. The calls were made as follows: active = hit-call score of the fitted dose curve at least 0.9, where 1 is the maximum; inactive = score below 0.9.
Labels: active, inactive

- O=C(NO)C1(NS(=O)(=O)c2ccc(Oc3ccc(F)cc3)cc2)CCOCC1: inactive
- O=S(=O)(O)c1ccc(N=Nc2c(O)ccc3cc(S(=O)(=O)O)ccc23)cc1: inactive
- CCCCC(CC)C(=O)OCCOCCOCCOC(=O)C(CC)CCCC (stereo unspecified): inactive
- CC(=O)c1ccccc1: inactive
- O=S1(=O)CCCO1: inactive
- FC(F)(F)C(F)(F)C(F)(F)C(F)(F)C(F)(F)C(F)(F)I: inactive
- CCc1cccc(CC)c1N: inactive
- OC(Cn1cncn1)(Cn1cncn1)c1ccc(F)cc1F: inactive
- OCC(CO)(CO)CO: inactive
- Cc1ccc(S(=O)(=O)NC(=O)NN2CCCCCC2)cc1: inactive
- CCCCCCOC(=O)CC(CC(=O)OCCCCCC)(OC(=O)CCC)C(=O)OCCCCCC: inactive
- OCCOCCOCCO: inactive
- CCOC(N)=O: inactive
- NC(=O)N1c2ccccc2C=Cc2ccccc21: inactive
- CC(C)CC(C)O (stereo unspecified): inactive
- O=C(O)[C@H](O)[C@@H](O)C(=O)O: inactive
- O=c1[nH]cnc2c1ncn2[C@H]1CC[C@@H](CO)O1: inactive
- CC[C@H](C)C(=O)O[C@H]1C[C@H](O)C=C2C=C[C@H](C)[C@H](CC[C@@H](O)C[C@@H](O)CC(=O)O)[C@H]21: inactive
- CCCCCCCC/C=C\CCCCCCCC(=O)OC[C@@H](O)[C@H]1OC[C@H](O)[C@H]1O: inactive
- Cc1ncc([C@@H](CCCCCCc2ccc3c(n2)NCCC3)CC(=O)O)cn1: active
- CCCCN1C(=O)[C@@H]([C@H](O)C2CCCCC2)NC(=O)C12CCN(Cc1ccc(Oc3ccc(C(=O)O)cc3)cc1)CC2: active
- NCC(F)(F)C(F)(F)C(F)(F)C(F)(F)F: inactive
- c1ccc(C(O[C@@H]2CCCN(CCc3ccc4c(c3)OCO4)C2)c2ccccc2)cc1: active
- CC(C)C(=O)Nc1ccc([N+](=O)[O-])c(C(F)(F)F)c1: inactive
- NC(N)=O: inactive
- O=C(O)c1cccc(C[C@@H]2COc3ccc(OCc4nc5cc(F)ccc5s4)cc3[C@@H]2O)c1: inactive
- C=CCc1cc(S(=O)(=O)c2ccc(O)c(CC=C)c2)ccc1O: active
- CCCCCCCCCCCCCCCCOS(=O)(=O)O: inactive
- COc1cc2c(c(OC)c1OC)-c1ccc(OC)c(=O)cc1[C@@H](NC(C)=O)CC2: active
- c1ccc2cc3ccccc3cc2c1: inactive
- O=C(Cl)C(F)(F)C(F)(F)C(F)(F)C(=O)Cl: inactive
- FC(F)(F)COC(OCC(F)(F)F)OCC(F)(F)F: inactive
- Cn1cc[nH]c1=S: inactive
- CCCc1ccccc1: inactive
- O=C1CN(N=Cc2ccc([N+](=O)[O-])o2)C(=O)N1: inactive
- Cc1nc(-c2ccccn2)ncc1C(=O)Nn1cc(C)c2cc(F)ccc21: inactive
- FC(F)=C(F)C(F)(F)C(F)(F)C(F)(F)C(F)(F)C(F)(F)C(F)(F)F: inactive
- C[C@@H](Oc1ccc(CNC(=O)c2cccnc2Oc2ccc3c(c2)OCO3)c(F)c1)C(=O)O: inactive
- NC(=O)NN=Cc1ccc([N+](=O)[O-])o1: inactive
- CCN(CC)C(=S)SSC(=S)N(CC)CC: active
- OC[C@H]1O[C@@H]2O[C@H]3[C@H](O)[C@@H](O)[C@@H](O[C@H]4[C@H](O)[C@@H](O)[C@@H](O[C@H]5[C@H](O)[C@@H](O)[C@@H](O[C@H]6[C@H](O)[C@@H](O)[C@@H](O[C@H]7[C@H](O)[C@@H](O)[C@@H](O[C@H]1[C@H](O)[C@H]2O)O[C@@H]7CO)O[C@@H]6CO)O[C@@H]5CO)O[C@@H]4CO)O[C@@H]3CO: inactive
- Cc1nccn1-c1ccc(Sc2cccc(C3(C(N)=O)CCOCC3)c2)cc1: inactive
- c1ccc2ncccc2c1: inactive
- NNC(=O)c1ccncc1: inactive
- OCc1ccccc1: inactive
- O=C(O)c1ccc2c(c1)nc(C(=O)NC1CCN(C3CC3)CC1)n2Cc1cc(-c2ccc(Cl)s2)on1: active
